# Test system: HCC1937;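 further: viability read out with the CCK-8 kit in 96-well plates, screening a set of 303 compounds acting on lipid metabolism targets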
# PROCEDURE_TEXT: relative cell viability, compound alone, vs DMSO (fraction of DMSO control); higher = less growth inhibition
# PARTICULARS: 72 h
QUANTITY_MEASURED: relative cell viability
API note: the answer field is a bare number with no unit suffix.

COMPOUND: O=C(O)C(=O)Nc1sc2c(c1C(=O)O)CCNC2
QUANTITY_MEASURED: relative cell viability
VAL: 1.01

Lookup: Please look up its relative cell viability: CCC(=O)Nc1cccc(Oc2nc(Nc3ccc(N4CCN(C)CC4)cc3OC)ncc2Cl)c1
Found: 0.48

Lookup: Requested read-out: relative cell viability. Entry: CC[C@H]1[C@@H](O)[C@@H]2[C@H](CC[C@]3(C)[C@@H]([C@H](C)CCC(=O)O)CC[C@@H]23)[C@@]2(C)CC[C@@H](O)C[C@@H]12 [Obeticholic Acid]
Found: 0.901
